Value source: ChEMBL document CHEMBL2424622

molecular target: Focal adhesion kinase 1 (Homo sapiens) (UniProt Q05397); assay: Competitive binding affinity to PTK2 (unknown origin) at 10 uM in presence of ATP relative to control
Sequence (Q05397 2-1052 limits assumed): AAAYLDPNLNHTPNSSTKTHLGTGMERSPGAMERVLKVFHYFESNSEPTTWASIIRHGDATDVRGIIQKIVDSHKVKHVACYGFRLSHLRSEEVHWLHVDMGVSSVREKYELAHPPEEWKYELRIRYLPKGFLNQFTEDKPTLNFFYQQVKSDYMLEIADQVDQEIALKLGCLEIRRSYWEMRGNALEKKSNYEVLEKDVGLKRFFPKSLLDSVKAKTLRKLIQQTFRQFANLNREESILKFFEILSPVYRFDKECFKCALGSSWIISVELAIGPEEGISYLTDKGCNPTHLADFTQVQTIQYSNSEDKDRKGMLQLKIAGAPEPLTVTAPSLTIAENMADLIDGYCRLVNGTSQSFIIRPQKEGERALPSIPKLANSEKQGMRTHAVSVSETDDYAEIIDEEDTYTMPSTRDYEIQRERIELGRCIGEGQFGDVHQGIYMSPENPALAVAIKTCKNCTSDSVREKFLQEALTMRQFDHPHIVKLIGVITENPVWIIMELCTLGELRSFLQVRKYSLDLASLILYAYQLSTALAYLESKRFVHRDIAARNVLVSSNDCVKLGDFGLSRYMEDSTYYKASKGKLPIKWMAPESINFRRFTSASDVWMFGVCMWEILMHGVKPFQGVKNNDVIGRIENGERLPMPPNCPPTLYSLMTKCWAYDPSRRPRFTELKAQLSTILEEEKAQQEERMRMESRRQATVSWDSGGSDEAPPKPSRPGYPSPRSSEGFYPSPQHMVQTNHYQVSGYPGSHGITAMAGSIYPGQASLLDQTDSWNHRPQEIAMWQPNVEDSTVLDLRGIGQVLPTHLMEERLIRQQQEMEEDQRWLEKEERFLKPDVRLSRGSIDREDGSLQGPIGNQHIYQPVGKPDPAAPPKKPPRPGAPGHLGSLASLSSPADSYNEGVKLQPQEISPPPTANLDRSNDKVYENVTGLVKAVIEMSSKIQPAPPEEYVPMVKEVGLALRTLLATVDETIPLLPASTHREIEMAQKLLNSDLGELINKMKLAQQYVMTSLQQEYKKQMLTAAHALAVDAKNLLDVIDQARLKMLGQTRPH
experimental readout: inhibition

Sample answers from the record:
{"smiles entry": "O=C([C@H]1CC[C@H](Nc2nccc(-n3nnc4ccccc43)n2)CC1)N1CCOCC1", "reading": "< 50%"}
{"smiles entry": "N[C@H]1CC[C@H](Nc2nccc(-n3nnc4ccccc43)n2)CC1", "reading": "< 50%"}
{"smiles entry": "O[C@H]1CC[C@H](Nc2nccc(-n3ncc4ccccc43)n2)CC1", "reading": "< 50%"}

Each compound below has a reported value. Please supply its inhibition.
1. O[C@H]1CC[C@H](Nc2nccc(-n3nnc4ccccc43)n2)CC1
2. O[C@H]1CC[C@H](Nc2nccc(-n3ccc4ccccc43)n2)CC1

Result:
< 50%
< 50%

Query: // lookup inhibition for `O[C@H]1CC[C@H](Nc2nccc(-c3n[nH]c4ccccc34)n2)CC1`
Result: 85%

---

target: Tyrosine-protein kinase HCK (Homo sapiens) (UniProt P08631); assay: Competitive binding affinity to HCK (unknown origin) at 10 uM in presence of ATP relative to control
Sequence (P08631 2-526 limits assumed): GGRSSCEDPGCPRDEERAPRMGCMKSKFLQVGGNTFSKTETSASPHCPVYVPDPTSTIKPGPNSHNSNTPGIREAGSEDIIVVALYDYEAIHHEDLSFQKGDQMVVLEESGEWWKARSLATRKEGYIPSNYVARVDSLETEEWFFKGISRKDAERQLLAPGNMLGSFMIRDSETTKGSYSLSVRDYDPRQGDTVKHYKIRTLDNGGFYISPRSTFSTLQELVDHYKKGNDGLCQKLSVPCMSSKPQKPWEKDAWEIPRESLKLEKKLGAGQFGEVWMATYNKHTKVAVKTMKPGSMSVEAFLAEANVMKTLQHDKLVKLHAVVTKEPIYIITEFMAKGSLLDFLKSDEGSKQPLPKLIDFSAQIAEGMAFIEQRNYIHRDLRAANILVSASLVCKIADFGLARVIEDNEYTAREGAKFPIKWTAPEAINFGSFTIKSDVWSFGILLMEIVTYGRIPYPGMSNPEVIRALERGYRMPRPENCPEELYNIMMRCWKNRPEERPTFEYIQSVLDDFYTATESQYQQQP
Answer each item with its documented inhibition.

{"smiles entry": "N[C@H]1CC[C@H](Nc2nccc(-n3nnc4ccccc43)n2)CC1", "inhibition": "78%"}
{"smiles entry": "O[C@H]1CC[C@H](Nc2nccc(-n3nnc4ccccc43)n2)CC1", "inhibition": "< 50%"}
{"smiles entry": "O[C@H]1CC[C@H](Nc2nccc(-n3ccc4ccccc43)n2)CC1", "inhibition": "< 50%"}
{"smiles entry": "O[C@H]1CC[C@H](Nc2nccc(-n3ncc4ccccc43)n2)CC1", "inhibition": "< 50%"}
{"smiles entry": "O[C@H]1CC[C@H](Nc2nccc(-c3n[nH]c4ccccc34)n2)CC1", "inhibition": "66%"}

Attention now shifts to the item below.
Query: // lookup inhibition for `O=C([C@H]1CC[C@H](Nc2nccc(-n3nnc4ccccc43)n2)CC1)N1CCOCC1`
Result: < 50%

---

molecular target: Mitogen-activated protein kinase 1 (Homo sapiens, UniProt P28482); test: Binding affinity to ERK2 (unknown origin)
Sequence (P28482 whole entry): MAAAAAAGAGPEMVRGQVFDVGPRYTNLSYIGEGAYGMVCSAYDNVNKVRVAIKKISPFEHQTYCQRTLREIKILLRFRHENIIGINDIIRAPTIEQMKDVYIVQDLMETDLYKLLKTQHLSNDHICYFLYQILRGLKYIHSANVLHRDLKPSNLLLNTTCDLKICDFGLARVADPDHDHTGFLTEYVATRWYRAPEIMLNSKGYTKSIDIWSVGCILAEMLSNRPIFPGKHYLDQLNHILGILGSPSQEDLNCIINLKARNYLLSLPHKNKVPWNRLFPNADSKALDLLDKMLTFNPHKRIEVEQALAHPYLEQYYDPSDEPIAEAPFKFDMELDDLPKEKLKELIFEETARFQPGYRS
experimental readout: Kd (µM)
Answers are plain numbers, in µM.

Query: What Kd appears in the records for this compound with Mitogen-activated protein kinase 1 (Homo sapiens, UniProt P28482)? `CS(=O)(=O)CCCOc1cccc2c1ccn2-c1ccnc(N[C@H]2CC[C@H](C(=O)N3CCC(O)CC3)CC2)n1`
Result: 1.5

---

Answer each item with its documented inhibition.
target: Mitogen-activated protein kinase 6 (Homo sapiens, UniProt Q16659); experiment: Competitive binding affinity to ERK3 (unknown origin) at 10 uM in presence of ATP relative to control
Sequence (Q16659 whole entry): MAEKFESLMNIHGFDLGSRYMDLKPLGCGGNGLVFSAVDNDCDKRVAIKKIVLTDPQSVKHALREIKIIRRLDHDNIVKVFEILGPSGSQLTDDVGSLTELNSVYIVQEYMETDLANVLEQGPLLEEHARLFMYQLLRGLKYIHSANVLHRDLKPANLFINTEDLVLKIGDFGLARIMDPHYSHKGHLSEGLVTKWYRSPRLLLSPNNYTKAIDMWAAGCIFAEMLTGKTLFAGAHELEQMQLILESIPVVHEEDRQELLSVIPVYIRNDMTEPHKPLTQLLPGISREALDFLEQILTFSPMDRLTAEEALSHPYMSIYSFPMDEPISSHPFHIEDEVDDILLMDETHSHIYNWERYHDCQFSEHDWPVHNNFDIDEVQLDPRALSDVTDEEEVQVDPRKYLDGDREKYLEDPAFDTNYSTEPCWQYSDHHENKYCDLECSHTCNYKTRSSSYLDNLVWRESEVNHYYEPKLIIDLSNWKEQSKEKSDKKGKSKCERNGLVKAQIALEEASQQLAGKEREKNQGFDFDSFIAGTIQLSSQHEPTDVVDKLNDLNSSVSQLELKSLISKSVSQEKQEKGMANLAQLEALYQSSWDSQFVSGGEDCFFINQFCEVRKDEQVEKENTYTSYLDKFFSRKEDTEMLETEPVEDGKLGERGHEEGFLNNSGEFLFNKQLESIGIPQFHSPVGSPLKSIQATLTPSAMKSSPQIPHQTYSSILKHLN

{"smiles entry": "O[C@H]1CC[C@H](Nc2nccc(-n3ncc4ccccc43)n2)CC1", "reading": "100%"}

Each compound below has a reported value. Please supply its inhibition.
1. CS(=O)(=O)CCCOc1cccc2c1ccn2-c1ccnc(N[C@H]2CC[C@H](C(=O)N3CCC(O)CC3)CC2)n1
2. O[C@H]1CC[C@H](Nc2nccc(-n3ccc4ccccc43)n2)CC1
3. O[C@H]1CC[C@H](Nc2nccc(-n3nnc4ccccc43)n2)CC1

Result:
["> 85%", "99%", "100%"]

---

molecular target: Mitogen-activated protein kinase 7 (Homo sapiens); experiment: Binding affinity to ERK5 (unknown origin)
Sequence (Q13164 whole entry): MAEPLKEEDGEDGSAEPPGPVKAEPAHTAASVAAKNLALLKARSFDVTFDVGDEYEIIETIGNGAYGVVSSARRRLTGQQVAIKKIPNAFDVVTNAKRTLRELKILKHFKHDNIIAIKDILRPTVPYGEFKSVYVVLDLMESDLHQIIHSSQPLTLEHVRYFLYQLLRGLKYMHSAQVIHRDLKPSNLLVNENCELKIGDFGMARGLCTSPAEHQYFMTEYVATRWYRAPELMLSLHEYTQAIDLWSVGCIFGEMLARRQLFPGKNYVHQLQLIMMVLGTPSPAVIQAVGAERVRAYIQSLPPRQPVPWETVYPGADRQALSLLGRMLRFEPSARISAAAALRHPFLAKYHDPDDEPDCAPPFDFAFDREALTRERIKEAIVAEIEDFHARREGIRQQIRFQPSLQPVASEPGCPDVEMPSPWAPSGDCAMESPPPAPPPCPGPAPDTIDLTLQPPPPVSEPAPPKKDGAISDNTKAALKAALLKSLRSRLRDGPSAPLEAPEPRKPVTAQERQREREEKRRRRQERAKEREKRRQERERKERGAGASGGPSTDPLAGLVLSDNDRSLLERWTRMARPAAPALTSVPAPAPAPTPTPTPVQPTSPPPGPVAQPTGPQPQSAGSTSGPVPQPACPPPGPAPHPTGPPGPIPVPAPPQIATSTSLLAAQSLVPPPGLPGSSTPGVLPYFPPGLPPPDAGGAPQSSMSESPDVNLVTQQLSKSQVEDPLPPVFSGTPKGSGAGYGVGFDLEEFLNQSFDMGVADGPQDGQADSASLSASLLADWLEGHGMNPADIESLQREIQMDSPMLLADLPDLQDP
experimental readout: pKd
Numbers only, as −log10 of the molar value.

Query: // lookup pKd for `CS(=O)(=O)CCCOc1cccc2c1ccn2-c1ccnc(N[C@H]2CC[C@H](C(=O)N3CCC(O)CC3)CC2)n1`
Result: 5.82
